Exercise: state measured pIC50 for each of the molecules provided.
Target: EP4 (Homo sapiens)
Construct: expressed in transfected cells; membranes prepared by differential centrifugation
Sequence (P35408 whole entry): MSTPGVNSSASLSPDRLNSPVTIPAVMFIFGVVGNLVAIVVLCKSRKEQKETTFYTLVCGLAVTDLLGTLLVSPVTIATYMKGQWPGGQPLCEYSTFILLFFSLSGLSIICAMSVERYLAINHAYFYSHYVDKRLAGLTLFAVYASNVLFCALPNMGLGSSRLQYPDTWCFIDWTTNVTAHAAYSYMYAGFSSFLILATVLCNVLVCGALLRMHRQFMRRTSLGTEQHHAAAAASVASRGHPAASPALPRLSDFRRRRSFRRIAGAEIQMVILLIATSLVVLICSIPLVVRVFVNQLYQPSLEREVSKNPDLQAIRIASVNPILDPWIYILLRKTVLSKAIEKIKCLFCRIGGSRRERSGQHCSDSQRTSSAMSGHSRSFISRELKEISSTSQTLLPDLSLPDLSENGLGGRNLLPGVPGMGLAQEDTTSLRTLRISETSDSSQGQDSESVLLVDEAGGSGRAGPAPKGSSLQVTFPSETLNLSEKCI
Test: Prostanoid receptor binding assay (radioligand displacement binding assay)
Settings: radioligand displacement binding assay; read-out: IC50
pIC50: −log10 of the molar value.

O=C(NCCc1ccc(-n2c3c(c4c(Cl)cc(Cl)cc42)CCN(CC2CC2)C3=O)cc1)NS(=O)(=O)c1ccc(Cl)cc1 | 8.30 to 9.00
CN1CCc2c(n(-c3ccc(CC4(NC(=O)NS(=O)(=O)c5ccc(Cl)cc5)CC4)cc3)c3ccc(-c4ccccc4)cc23)C1=O | 8.30 to 9.00
CN1CCc2c(n(-c3ccc(CCNC(=O)NS(=O)(=O)c4ccc(Cl)cc4)cc3)c3cccc(S(C)(=O)=O)c23)C1=O | < 8.30

For every record below, what is its pIC50?
1. CN1CCc2c(n(-c3ccc(CCNC(=O)NS(=O)(=O)c4ccc(Cl)cc4)cc3)c3cc(S(C)(=O)=O)ccc23)C1=O
2. CN1CCc2c(n(-c3ccc(CCNC(=O)NS(=O)(=O)c4ccc(Cl)cc4)cc3)c3c(Cl)cccc23)C1=O
3. CN1CCc2c(n(-c3ccc(CCNC(=O)NS(=O)(=O)c4ccc(Cl)cc4)cc3)c3cc(-c4ccccc4)ccc23)C1=O
4. O=C(NCCc1ccc(-n2c3c(c4c(Cl)cc(Cl)cc42)CCN(c2ccccc2)C3=O)cc1)NS(=O)(=O)c1ccc(Cl)cc1

**Result**
1. 8.30 to 9.00
2. < 8.30
3. < 8.30
4. < 8.30

Reference for the values: patent US8685999B2
